Known PBM binding z-score of a selection of sequences
# Tested on: RXRa homodimer (NR concentration 180 nM)
# Protocol Details: PBM binding z-score (relative to random genomic background probes); higher = stronger binding; sequences stand for … in GC…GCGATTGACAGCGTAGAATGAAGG

Sequence Text: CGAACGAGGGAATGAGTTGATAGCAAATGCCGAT
PBM binding z-score: -0.465

Sequence Text: GGAATGAGGGCATTCGAGTTGATAGCATGGCGAT
PBM binding z-score: 0.995

Sequence Text: CAAACTAGGTCAAGTGGTCAAAGTCCGCTTCCCG
PBM binding z-score: 3.76

Sequence Text: GCGACTGGGGCAAAGCAGGTTACCCTAAGGTTGG
PBM binding z-score: 0.394

Sequence Text: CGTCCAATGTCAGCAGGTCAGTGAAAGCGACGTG
PBM binding z-score: 0.9

Sequence Text: TCTAGTTGGTCAAGGGTCACACACTCGAAATGCG
PBM binding z-score: 6.31

----------
# System: PPARg:RXRa IVT, anti-PPARg (NR concentration 270 nM, RXRa partner concentration 90 nM)
# Protocol Details: PBM binding z-score (relative to random genomic background probes); higher = stronger binding; sequences stand for … in GC…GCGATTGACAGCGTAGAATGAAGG
Experimental Readout: PBM binding z-score

Sequence Text: CCTACTCGGCCAAGGTCATTGATCAGTCAAAGCA
Experimental Readout: PBM binding z-score
Experimental Result: 1.68

Sequence Text: TCTCAGAGGACACGAAAGGTCAGAGCTCGACATC
Experimental Readout: PBM binding z-score
Experimental Result: 1.57

Sequence Text: GCTAGTTGGTCAGTACAAGGTCACACACCGGTCG
Experimental Readout: PBM binding z-score
Experimental Result: 2.35

Sequence Text: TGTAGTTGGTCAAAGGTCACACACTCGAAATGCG
Experimental Readout: PBM binding z-score
Experimental Result: 6.41

Sequence Text: CGTCCAAGGTCAGCAGGTCAGTGAAAGCGACGTG
Experimental Readout: PBM binding z-score
Experimental Result: 3.8

Sequence Text: ACTCGGAGGACAAAGATCAGAGCTACGCCAGTGA
Experimental Readout: PBM binding z-score
Experimental Result: -0.127

----------
# Test system: PXR:RXRa (NR concentration 270 nM, RXRa partner concentration 90 nM)
# Protocol Details: PBM binding z-score (relative to random genomic background probes); higher = stronger binding; sequences stand for … in GC…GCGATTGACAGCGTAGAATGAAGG
Group membership follows PBM binding z-score per the scheme range 1 (below -0.2), range 2 (-0.2 to below 2), range 3 (2 or more)

Sequence Text: CCTCGCAGGACAACAGGAGGTCAGAGCTGCCAGA
Class Name: range 2
--
Sequence Text: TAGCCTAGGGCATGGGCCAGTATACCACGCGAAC
Class Name: range 1
--
Sequence Text: AGTCCAAGTTCATCTAGGTAACGTAAGATATGCT
Class Name: range 3
--
Sequence Text: ATCGAAAGGACGAGGTGAGTATAGAGAAAGGGAA
Class Name: range 1
--
Sequence Text: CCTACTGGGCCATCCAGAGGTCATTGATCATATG
Class Name: range 3
--
Sequence Text: ACTAGCAGGCCAATGGTCACTCAAGATTAGTCCG
Class Name: range 1
--
Sequence Text: ATCTCTAGGTAAAGTTAAGTGAAAGATCGATAGA
Class Name: range 2
--
Sequence Text: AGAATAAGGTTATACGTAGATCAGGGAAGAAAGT
Class Name: range 2
--
Sequence Text: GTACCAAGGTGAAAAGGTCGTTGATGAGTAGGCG
Class Name: range 3
--
Sequence Text: GTACCAAGGTGAATCGGTCGTTGATGAGTAGGCG
Class Name: range 1
--
Sequence Text: GCAGACAGGTGAAACGCAGGTAACTCGGGGTGGC
Class Name: range 2
--
Sequence Text: TCTAGTTGGTCACGGAGCTCACACACGACGGGTA
Class Name: range 2

----------
# Test system: PXR:RXRa (NR concentration 270 nM, RXRa partner concentration 90 nM)
# Protocol Details: PBM binding z-score (relative to random genomic background probes); higher = stronger binding; sequences stand for … in GC…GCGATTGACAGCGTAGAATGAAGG

Sequence Text: ATTACAGGGTCACTAGGCCAGAGTAGGTACGAAT
PBM binding z-score: 3.43

Sequence Text: CGGACGAGGGCATGAGTTGATAGCAAATGCCGAT
PBM binding z-score: 0.528

Sequence Text: TCATATAGGTAAACAGCTGAAAGTCCGTAAGTTA
PBM binding z-score: 0.928

Sequence Text: TCATATAGGCAAAGGTGAAAGTCGAACGATATGA
PBM binding z-score: 1.04

Sequence Text: CCTACTGGGCCAAAAAGGTCATTGACGCCGATAA
PBM binding z-score: 4.65

Sequence Text: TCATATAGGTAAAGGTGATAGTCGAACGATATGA
PBM binding z-score: 0.398

Sequence Text: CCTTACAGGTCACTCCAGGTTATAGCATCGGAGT
PBM binding z-score: 4.74

Sequence Text: CAAACTAGGTCACGCAAGGTCAAAGTCGAATGAC
PBM binding z-score: 7.23

Sequence Text: ACTATTAGTAGAGACGAGGGCAACCGATAGGTTG
PBM binding z-score: 0.541

Sequence Text: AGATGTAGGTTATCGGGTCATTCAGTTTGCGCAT
PBM binding z-score: 4.02

Sequence Text: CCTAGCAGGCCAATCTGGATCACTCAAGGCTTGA
PBM binding z-score: -0.635

Sequence Text: CCTAGCAGGCCAACCTGGGTCACTCAAGGCTTGA
PBM binding z-score: 1.46

Sequence Text: ATCTCTAGGTAACAAAGTTCAGTGAATGCCGAAC
PBM binding z-score: 2.36

Sequence Text: AGGACGAGGGCACGCTGAGTTGATAGCAGAGTAG
PBM binding z-score: 1.31

Sequence Text: TCGATTAGGTTAGTCGGGGCATTCAGCCAACATA
PBM binding z-score: 0.39

Sequence Text: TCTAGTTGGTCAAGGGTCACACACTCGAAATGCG
PBM binding z-score: 4.32

Sequence Text: CCGACTAGGGCAGAAAGGTTACCATACCATCCGG
PBM binding z-score: 1.24

Sequence Text: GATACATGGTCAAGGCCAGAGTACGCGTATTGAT
PBM binding z-score: -0.158

Sequence Text: TCTAGCAGGCCAGAGGGTCACTTAAGAGGTACGG
PBM binding z-score: 1.35

Sequence Text: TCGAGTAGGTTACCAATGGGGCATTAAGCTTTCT
PBM binding z-score: -0.325

Sequence Text: TTACCAGGGTGAGCTGAGGTCGTTGATCCAACTC
PBM binding z-score: 5.42

Sequence Text: CCGACTGGGGCGAGGTTACCATAACGCACAGCCA
PBM binding z-score: 0.372

Sequence Text: ATCTCTTGGTAACCAAGTTCAGTGAATGCCGAAC
PBM binding z-score: 1.92

Sequence Text: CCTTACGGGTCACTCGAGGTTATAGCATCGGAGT
PBM binding z-score: 5.71

Sequence Text: GCTAGGTGGTCAGTAAAAGGTCACACACCGGTCG
PBM binding z-score: 5.02

Sequence Text: AATACAGGGTCACTAGGCCAGAGTAGGTACGAAT
PBM binding z-score: 3.28

----------
Known PBM binding z-score of a selection of sequences
# Tested on: PPARg:RXRa 90nM:30nM, anti-RXR (NR concentration 90 nM, RXRa partner concentration 30 nM)
# Protocol Details: PBM binding z-score (relative to random genomic background probes); higher = stronger binding; sequences stand for … in GC…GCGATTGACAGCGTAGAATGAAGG
Experimental Readout: PBM binding z-score

Sequence Text: CGTCCAAGGTCATAGGAGGTCAGAGAAGACAGAT
Tested Target: PPARg:RXRa 90nM:30nM, anti-RXR (NR concentration 90 nM, RXRa partner concentration 30 nM)
Experimental Result: 5.09

Sequence Text: ATCTCTAGGTAAGACTCAGTTCACTGAAGAACGC
Tested Target: PPARg:RXRa 90nM:30nM, anti-RXR (NR concentration 90 nM, RXRa partner concentration 30 nM)
Experimental Result: 0.475

Sequence Text: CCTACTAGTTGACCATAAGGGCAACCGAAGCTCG
Tested Target: PPARg:RXRa 90nM:30nM, anti-RXR (NR concentration 90 nM, RXRa partner concentration 30 nM)
Experimental Result: 0.0805

Sequence Text: TTACCAAGGTGATAGGTCGTTGATGCACGCCTTG
Tested Target: PPARg:RXRa 90nM:30nM, anti-RXR (NR concentration 90 nM, RXRa partner concentration 30 nM)
Experimental Result: 5.61

Sequence Text: CCTACTTGGTCAAGGTCACACACGCTATAGGTAC
Tested Target: PPARg:RXRa 90nM:30nM, anti-RXR (NR concentration 90 nM, RXRa partner concentration 30 nM)
Experimental Result: 2.72

Sequence Text: CGTCCAAGGACAGAGAGGTCAGTGAATGCCGAGT
Tested Target: PPARg:RXRa 90nM:30nM, anti-RXR (NR concentration 90 nM, RXRa partner concentration 30 nM)
Experimental Result: -0.223

Sequence Text: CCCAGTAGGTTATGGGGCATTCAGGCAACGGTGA
Tested Target: PPARg:RXRa 90nM:30nM, anti-RXR (NR concentration 90 nM, RXRa partner concentration 30 nM)
Experimental Result: 5.66

Sequence Text: CCTACTGGGCCACGAAAGGTCTTTGATTCAGTGA
Tested Target: PPARg:RXRa 90nM:30nM, anti-RXR (NR concentration 90 nM, RXRa partner concentration 30 nM)
Experimental Result: 0.769

Sequence Text: AGAATGAGGTTATACGTAGAACAGGGAAGAAAGT
Tested Target: PPARg:RXRa 90nM:30nM, anti-RXR (NR concentration 90 nM, RXRa partner concentration 30 nM)
Experimental Result: 1.68

Sequence Text: CCGACTGGGCCAAGGTTACCATAACGCACAGCCA
Tested Target: PPARg:RXRa 90nM:30nM, anti-RXR (NR concentration 90 nM, RXRa partner concentration 30 nM)
Experimental Result: 1.39

Sequence Text: CCTCAGAGGACAGAAGGTCAGAGCTGTCCGCTTT
Tested Target: PPARg:RXRa 90nM:30nM, anti-RXR (NR concentration 90 nM, RXRa partner concentration 30 nM)
Experimental Result: 0.513

Sequence Text: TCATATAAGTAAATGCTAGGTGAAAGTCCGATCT
Tested Target: PPARg:RXRa 90nM:30nM, anti-RXR (NR concentration 90 nM, RXRa partner concentration 30 nM)
Experimental Result: 3.6
